meta.source: PubChem BioAssay AID248

- Test system: L1210 leukemia ip in BDF1 mice, survival T/C
- experiment.description: NCI In Vivo Anticancer Drug Screen. Data for tumor model L1210 Leukemia (intraperitoneal) in B6D2F1 (BDF1) mice
- run.parameters: endpoint: mean survival time; dose: 200.0 mg/kg/injection; schedule: Q01DX009 (ip); vehicle: saline with Tween-80; higher = longer survival
Toxic doses and inconclusive results are not listed.
endpoint.label: T/C

compound: COc1ccc(C(O)(c2ccccc2)C(O)c2ccccc2)cc1 (configuration not stated)
endpoint.label: T/C
result: 88 % of control

compound: O=NN(CCCl)C(=O)c1cc(Cl)cc(Cl)c1
endpoint.label: T/C
result: 99 % of control

compound: O=C(OC/C=C/c1ccccc1)c1ccccc1
endpoint.label: T/C
result: 91 % of control

compound: O=c1c2c(O)cccc2oc2cccc(O)c12
endpoint.label: T/C
result: 91 % of control

compound: O=C(Nc1ccccc1)c1ccccc1C(O)(c1ccccc1)c1ccccn1 (configuration not stated)
endpoint.label: T/C
result: 97 % of control

compound: Cc1c(C#N)c2n(c1C)CCCC(=O)N2
endpoint.label: T/C
result: 91 % of control

compound: CN(C)c1ccc(/C=N/NC(=O)CNC(=O)Nc2nccs2)c(Cl)c1
endpoint.label: T/C
result: 89 % of control

compound: Cc1ccc([N+](=O)[O-])cc1NC(=O)COc1cc(Cl)c(Cl)cc1Cl
endpoint.label: T/C
result: 94 % of control

compound: CCCN(C(=O)c1cccc([N+](=O)[O-])c1)C(c1ccco1)P(=O)(c1ccccc1)c1ccccc1 (configuration not stated)
endpoint.label: T/C
result: 87 % of control

compound: CCOC(=N)CCCl
endpoint.label: T/C
result: 102 % of control

compound: CCCCNC(C)(C)C(SSS(=O)(=O)O)c1ccc(Cl)cc1 (configuration not stated)
endpoint.label: T/C
result: 103 % of control

compound: NS(=O)Oc1ccc(Nc2ncnc3nc[nH]c23)cc1 (configuration not stated)
endpoint.label: T/C
result: 95 % of control

###

Recorded T/C by entry
- System: L1210 leukemia ip in BDF1 mice, survival T/C
- experiment.description: NCI In Vivo Anticancer Drug Screen. Data for tumor model L1210 Leukemia (intraperitoneal) in B6D2F1 (BDF1) mice
- run.parameters: endpoint: mean survival time; dose: 400.0 mg/kg/injection; schedule: Q04DX003 (ip); vehicle: saline; higher = longer survival
Inconclusive results and toxic doses are left out.
endpoint.label: T/C

compound: COc1ccc(CN(C(C)=O)c2cc(C)c([N+](=O)[O-])cc2OC)cc1OC
result: 98 % of control
//
compound: C[n+]1c(/C=C/c2ccc(O)c3ncccc23)[se]c2ccccc21
result: 105 % of control
//
compound: CSC(=N)N
result: 97 % of control
//
compound: CC(=O)Nc1ccc2c(c1)/C(=N/O)c1ccccc1-2
result: 94 % of control
//
compound: COc1cccc2c1CCC1=C2CC2C(=O)C1CCC2(C)O (stereo not drawn)
result: 110 % of control
//
compound: O=C1CN(Br)C(=O)N1Br
result: 100 % of control
//
compound: CCOC1(OCC)CS(=O)(=O)C1
result: 112 % of control
//
compound: CN(C(N)=O)C1CCCC1
result: 96 % of control
//
compound: CCOC(=O)CNCc1cccnc1
result: 102 % of control
//
compound: COc1cccc(C=Nc2ccc(I)cc2)c1O.COc1cccc(C=Nc2ccc(I)cc2)c1O.[Co]
result: 109 % of control
//
compound: CCCCCCCCCCCCCCCC(=O)N(CCC#N)CCCCCCCCCN(CCC#N)C(=O)CCCCCCCCCCCCCCC
result: 92 % of control
//
compound: N#CCCN1CCN(CCC#N)CC1
result: 100 % of control
//
compound: OCC(O)C1CCCCN1 (stereo not drawn)
result: 97 % of control
